This section presents substances with their documented MIC (μg/mL) P. vulgaris values.
# Tested on: Proteus vulgaris
# Protocol Description: MIC against Gram-negative bacteria: Proteus vulgaris
# Assay type: cell-based
# Experimental Parameters: Proteus vulgaris; 96-well plate, 5×10^5 CFU/mL, 37° C., 10 h
Give a bare numeral; the unit µg/mL is implied.

Answered examples (5):
[
  {
    "Substance": "hF VII-EGF1: human coagulation factor VII-EGF1 domain protein, molecular weight about 3.9 kD, recombinant, released from RFP fusion by rTEV (DGDQCASSPCQNGGSCKDQLQSYICFCLPAFEGRNCE; listed as Homo sapiens)",
    "MIC (μg/mL) P. vulgaris [µg/mL]": 12.5
  },
  {
    "Substance": "PRT31 (CDCYPVGSTSRSCAPHSGQCPCRPGALGRQCNSCDSPFAEVTASGC; listed as Homo sapiens)",
    "MIC (μg/mL) P. vulgaris [µg/mL]": 50
  },
  {
    "Substance": "PRT22 (WCEDNGGCEQICTSRVDGPLCSCVTGTLQEDGKSCR; listed as Homo sapiens)",
    "MIC (μg/mL) P. vulgaris [µg/mL]": 12.5
  },
  {
    "Substance": "PRT34 (ACHPGFYGPDCKLRCSCNNGEMCDRFQGCLCSPGWQGLQCE; listed as Homo sapiens)",
    "MIC (μg/mL) P. vulgaris [µg/mL]": 25
  },
  {
    "Substance": "PRT79 (LPDPCDSNPCPANSYCSNDWDSYSCSCDPGYYGDNC; listed as Homo sapiens)",
    "MIC (μg/mL) P. vulgaris [µg/mL]": 12.5
  }
]

Note: attention shifts to another entry.
Q. Using the record for PRT10 (NCSAQCHNHGVCNHKQECHCHAGWAPPHCA; listed as Homo sapiens) , report its MIC (μg/mL) P. vulgaris.
A. 25

###

# Tested on: Proteus mirabilis
# Protocol Description: MIC against Gram-negative bacteria: Proteus mirabilis
# Type: cell-based
# Experimental Parameters: 96-well plate, 5×10^5 CFU/mL, 37° C., 10 h
This section presents substances with their documented MIC P. mirabilis values.
Give a bare numeral; the unit µg/mL is implied.

[
  {
    "Substance": "PRT692 (DVDECATGGRCQHGECANTRGGYTCVCPDGFLLDSSRSSCI; listed as Homo sapiens)",
    "MIC P. mirabilis / µg/mL": 12.5
  }
]

Q. Using the record for PRT720 (INECHDPSISGCDHNCTDTLTSFYCSCRPGYKLMSDKRTCV; listed as Homo sapiens) , report its MIC P. mirabilis.
A. 25

Q. Query PRT674 (DVDECQDPAACRPGRCVNLPGSYRCECRPPWVPGPSGRDCQ; listed as Homo sapiens) next
A. 12.5

Q. Query PRT683 (DIDECSQDPSLCLPHGACKNLQGSYVCVCDEGFTPTQDQHGCE; listed as Homo sapiens) next
A. 12.5

Q. Query PRT705 (LDDSCKLTCENGGRCILNEKGDLRCHCWPSYSGE; listed as Homo sapiens) next
A. 50

###

# Test system: Enterobacter cloacae
# Protocol Description: MIC against Gram-negative bacteria: Enterobacter cloacae
# Assay type: cell-based
# Experimental Parameters: E. cloacae; 10 h cultivation at 37° C.
This section presents substances with their documented MIC values.
Give a bare numeral; the unit µg/mL is implied.

Answered examples (2):
[
  {
    "Substance": "PRT1024 (DVDECQPSRCHPDAFCYNTPGSFTCQCKPGYQGDGFRCV; listed as Homo sapiens)",
    "Property Name": "MIC",
    "Unit Label": "µg/mL",
    "Observed Measurement": 12.5
  },
  {
    "Substance": "PRT1004 (LRPSCADSPCRNRATCQDSPQGPRCLCPTGYTGGSCQ; listed as Homo sapiens)",
    "Property Name": "MIC",
    "Unit Label": "µg/mL",
    "Observed Measurement": 50
  }
]

Note: attention shifts to another entry.
Q. Using the record for PRT990 (LDDACVSNPCHEDAICDTNPVNGRAICTCPPGFTGGACD; listed as Homo sapiens) , report its MIC.
A. 50

###

This section presents substances with their documented MIC P. aeruginosa values.
# Test system: Pseudomonas aeruginosa
# Protocol Description: MIC against Gram-negative bacteria: Pseudomonas aeruginosa
# Format: cell-based
# Experimental Parameters: 10 h cultivation at 37° C., 5×10^5 CFU/mL, two-fold serial dilution
Give a bare numeral; the unit µg/mL is implied.

[
  {
    "Substance": "PRT1098 (DIDNCQSHQCANGATCISHTNGYSCLCFGNFTGKFCR; listed as Homo sapiens)",
    "Observed Measurement": 12.5
  }
]

Q. Using the record for PRT1149 (APSVCQQDVCHNGGTCHAIFLSSGIVSFQCDCPLHFTGRFCE; listed as Homo sapiens) , report its MIC P. aeruginosa.
A. 50

Q. Query PRT1075 (EVNKCSRCLEGACVVNKQSGDVTCNCTDGRVAPSCL; listed as Homo sapiens) next
A. 25

Q. Query PRT1061 (KRDPCLRKYKDFCIHGECKYVKELRAPSCICHPGYHGERCH; listed as Homo sapiens) next
A. 12.5

Q. Query PRT1119 (EVLECASAPCEHNASCLEGLGSFRCLCWPGYSGELCE; listed as Homo sapiens) next
A. 50

Q. Query PRT1106 (NTDECASQPCLHGGLCVDGENRYSCNCTGSGFTGTHCE; listed as Homo sapiens) next
A. 12.5

###

This section presents substances with their documented MIC (μg/mL) P. aeruginosa values.
# System: Pseudomonas aeruginosa
# Protocol Description: MIC against Gram-negative bacteria: Pseudomonas aeruginosa
# Assay type: cell-based
# Experimental Parameters: P. aeruginosa; 10 h cultivation at 37° C.; 5×10^5 CFU/mL
Give a bare numeral; the unit µg/mL is implied.

[
  {
    "Substance": "PRT775 (SSLKCPDACNAQHKQCLIKKSGGAPECACVPGYQEDANGNCQ; listed as Homo sapiens)",
    "Unit Label": "µg/mL",
    "MIC (μg/mL) P. aeruginosa": 50
  }
]

Q. Using the record for PRT163 (EYNECLSAPCLNAATCRDLVNGYECVCLAEYKGTHCE; listed as Homo sapiens) , report its MIC (μg/mL) P. aeruginosa.
A. 12.5

Q. Query PRT841 (PEDECANGHHDCNETQNCHDQPHGYECSCKTGYTMDNMT; listed as Homo sapiens) next
A. 12.5

###

# Test system: Klebsiella pneumonia
# Protocol Description: MIC against Gram-negative bacteria: Klebsiella pneumonia
# Assay type: cell-based
# Experimental Parameters: 96-well plate, 5×10^5 CFU/mL, 37° C., 10 h
This section presents substances with their documented MIC K. pneumonia values.
Answer as a quantity: numeral, then unit.

Answered examples (2):
[
  {
    "Substance": "PRT622 (CNCNPMGSEPVGCRSDGTCVCKPGFGGPNC; listed as Homo sapiens)",
    "Target Or System": "Klebsiella pneumonia",
    "MIC K. pneumonia": "50 µg/mL"
  },
  {
    "Substance": "PRT645 (EINECTVNPDICGAGHCINLPVRYTCICYEGYRFSEQQ; listed as Homo sapiens)",
    "Target Or System": "Klebsiella pneumonia",
    "MIC K. pneumonia": "25 µg/mL"
  }
]

Note: attention shifts to another entry.
Q. Using the record for PRT714 (HINECLSKKVSGCSQDCQDLPVSYKCKCWPGFQLKDDGKTCV; listed as Homo sapiens) , report its MIC K. pneumonia.
A. 12.5 µg/mL

###

# Tested on: Proteus vulgaris
# Protocol Description: MIC against Gram-negative bacteria: Proteus vulgaris
# Type: cell-based
# Experimental Parameters: P. vulgaris; 10 h cultivation at 37° C.; 5×10^5 CFU/mL
This section presents substances with their documented MIC (μg/mL) P. vulgaris values.
Give a bare numeral; the unit µg/mL is implied.

Answered examples (5):
[
  {
    "Substance": "PRT220 (DINECETTNECREDEMCWNYHGGFRCYPRNPCQDPYILTPENRCV; listed as Homo sapiens)",
    "Target Or System": "Proteus vulgaris",
    "MIC (μg/mL) P. vulgaris (µg/mL)": 12.5
  },
  {
    "Substance": "PRT195 (MGYNCNATTKCKGKGICNNFGNCQCFPGHRPPDCK; listed as Homo sapiens)",
    "Target Or System": "Proteus vulgaris",
    "MIC (μg/mL) P. vulgaris (µg/mL)": 25
  },
  {
    "Substance": "PRT769 (CNGVDHGCEFQCVSEGLSYRCLCPEGRQLQADGKSC; listed as Homo sapiens)",
    "Target Or System": "Proteus vulgaris",
    "MIC (μg/mL) P. vulgaris (µg/mL)": 25
  },
  {
    "Substance": "PRT843 (CQCNGHGDPRRGHCDNLSGLCFCQDHTEGAHCQLCSPGYYGDPRAGGSCFR; listed as Homo sapiens)",
    "Target Or System": "Proteus vulgaris",
    "MIC (μg/mL) P. vulgaris (µg/mL)": 25
  },
  {
    "Substance": "PRT790 (HGPQCEQRCPCQNGGVCHHVTGECSCPSGWMGTVCG; listed as Homo sapiens)",
    "Target Or System": "Proteus vulgaris",
    "MIC (μg/mL) P. vulgaris (µg/mL)": 50
  }
]

Q. Lookup: MIC (μg/mL) P. vulgaris / Proteus vulgaris / PRT882 (SAKQCDSYPCKNNAVCKDGWNRFICDCTGTGYWGRTCE; listed as Homo sapiens)
A. 12.5
